testedSystem: TGFβRI kinase ALK5 (Homo sapiens (Human), UniProt P36897)
Sequence (P36897 34-503): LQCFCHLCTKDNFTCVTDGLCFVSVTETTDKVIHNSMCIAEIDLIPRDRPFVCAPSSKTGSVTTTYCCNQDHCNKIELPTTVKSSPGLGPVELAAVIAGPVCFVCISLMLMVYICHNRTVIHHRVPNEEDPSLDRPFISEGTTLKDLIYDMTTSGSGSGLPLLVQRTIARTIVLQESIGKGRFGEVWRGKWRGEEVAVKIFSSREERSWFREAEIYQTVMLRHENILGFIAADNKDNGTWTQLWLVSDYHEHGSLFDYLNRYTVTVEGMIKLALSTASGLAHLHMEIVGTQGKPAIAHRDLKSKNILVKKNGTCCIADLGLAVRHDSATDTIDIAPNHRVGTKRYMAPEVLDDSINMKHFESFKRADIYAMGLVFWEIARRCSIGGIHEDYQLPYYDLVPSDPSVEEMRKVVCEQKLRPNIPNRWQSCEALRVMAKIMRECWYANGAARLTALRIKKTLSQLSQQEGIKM
measurementType: pIC50
Keep in mind that pIC50 stands for -log10 of concentration in molar terms.

Answered examples (3):
Cc1cccc(-c2nn(C3CC3)cc2-c2ccnc(-c3ccc(S(C)(=O)=O)cc3)c2)n1 [Example 2]    6.57
Cc1cccc(-c2nn(C3CCC3)cc2-c2ccnc(-c3ccc(S(C)(=O)=O)cc3)c2)n1 [Example 1]    6.68
Cc1cccc(-c2nn(C3CCCC3)cc2-c2ccnc(-c3ccc(S(C)(=O)=O)cc3)c2)n1 [Example 3]    6.62

Let us move to another entry and its pIC50.
Considering Cc1cccc(-c2nn([C@@H]3CCN(S(C)(=O)=O)C3)cc2-c2ccnc(-c3ccc(S(C)(=O)=O)cc3)c2)n1 [Example 8] , its pIC50 with TGFβRI kinase ALK5 (Homo sapiens (Human), UniProt P36897) was recorded as 6.43

Just for reference, patent US10899741B2 is where these values come from.
